targetOrSystem: human CD33 F44H (human, UniProt P20138 18-364)
Sequence (P20138 18-364 F44H limits assumed): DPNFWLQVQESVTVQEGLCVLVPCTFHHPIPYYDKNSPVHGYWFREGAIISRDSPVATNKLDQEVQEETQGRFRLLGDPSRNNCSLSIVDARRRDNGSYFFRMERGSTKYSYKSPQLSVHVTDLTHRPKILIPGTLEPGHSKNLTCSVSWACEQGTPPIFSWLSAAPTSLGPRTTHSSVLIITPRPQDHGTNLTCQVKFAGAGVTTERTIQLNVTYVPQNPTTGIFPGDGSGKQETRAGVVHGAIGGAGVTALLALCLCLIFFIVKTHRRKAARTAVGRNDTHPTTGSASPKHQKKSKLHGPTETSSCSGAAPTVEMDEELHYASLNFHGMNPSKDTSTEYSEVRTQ
assayDetails: flow cytometry, mutant on cells, IgG
valueType: Mean % WT Binding (% WT binding)
One number for each entry, in % WT binding.

# example entries with known answers
binder	valueType	observedValue
Refmab #3 (antibody, human IgG1, V domains shown, Tested in IgG format; human IgG1 Fc silent (PG-LALA)) VH: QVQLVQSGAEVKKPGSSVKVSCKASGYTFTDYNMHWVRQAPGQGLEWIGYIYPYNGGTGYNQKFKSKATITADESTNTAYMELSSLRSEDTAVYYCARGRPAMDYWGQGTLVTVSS VL: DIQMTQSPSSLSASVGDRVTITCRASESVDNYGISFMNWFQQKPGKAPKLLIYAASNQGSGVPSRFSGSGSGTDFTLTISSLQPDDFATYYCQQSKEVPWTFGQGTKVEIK	Mean % WT Binding	91.2
Refmab #1 (antibody, human IgG1, V domains shown, Tested in IgG format; human IgG1 (Absolute Antibody hP67.6, Cat. No. Ab00283-10.0); also called hP67.6) VH: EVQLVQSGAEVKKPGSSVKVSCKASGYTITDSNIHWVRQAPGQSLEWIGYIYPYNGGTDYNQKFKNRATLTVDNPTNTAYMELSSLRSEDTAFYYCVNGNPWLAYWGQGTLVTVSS VL: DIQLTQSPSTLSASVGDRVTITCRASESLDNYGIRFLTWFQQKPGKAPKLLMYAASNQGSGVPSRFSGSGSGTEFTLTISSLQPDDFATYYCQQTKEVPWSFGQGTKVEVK	Mean % WT Binding	97.6
Refmab #2 (antibody, human IgG1, V domains shown, Tested in IgG format; human IgG1 Fc silent (PG-LALA)) VH: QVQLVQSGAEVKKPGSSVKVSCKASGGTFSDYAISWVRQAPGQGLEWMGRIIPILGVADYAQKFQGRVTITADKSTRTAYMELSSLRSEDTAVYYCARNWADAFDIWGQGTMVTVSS VL: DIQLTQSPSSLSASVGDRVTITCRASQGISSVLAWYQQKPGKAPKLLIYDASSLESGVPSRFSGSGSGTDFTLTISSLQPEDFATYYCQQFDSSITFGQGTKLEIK	Mean % WT Binding	0.4

Form field Mean % WT Binding, entry Refmab #4 (antibody, human IgG1, V domains shown, Tested in IgG format; human IgG1 Fc silent (PG-LALA)) VH: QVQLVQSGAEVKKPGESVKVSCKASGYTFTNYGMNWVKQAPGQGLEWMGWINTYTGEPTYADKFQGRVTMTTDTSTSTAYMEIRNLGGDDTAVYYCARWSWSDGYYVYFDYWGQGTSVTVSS VL: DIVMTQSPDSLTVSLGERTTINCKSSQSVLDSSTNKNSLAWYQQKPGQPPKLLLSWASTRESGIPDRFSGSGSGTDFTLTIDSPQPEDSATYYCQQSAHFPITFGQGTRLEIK : 84.9
